Origin of the recorded values: patent US8026219B2

# System: erythrocytes from fresh human blood
# COND: 50 μM peptide, 5% erythrocytes, 1 h at 37° C., relative to 200 μM melittin
Residues, ends and D or L forms follow the SMILES beside them. *: point of attachment. Bz = O=C(c1ccccc1)*

MOLECULE	UNITS	% Haemolysis 50 μM
CC[C@H](C)[C@H](NC(=O)[C@H](CCCCN)NC(=O)[C@H](CCCCN)NC(=O)[C@H](Cc1ccccc1)NC(=O)[C@H](CC(C)C)NC(=O)[C@H](CCCCN)NC(=O)[C@H](Cc1ccc(O)cc1)NS(=O)(=O)c1ccc(C)cc1)C(=O)N[C@@H](CC(C)C)C(=O)N[C@@H](CCCCN)C(=O)N[C@@H](Cc1ccc(O)cc1)C(=O)N[C@@H](CC(C)C)C(N)=O [BP097]	%	83
CC[C@H](C)[C@H](NC(=O)[C@H](CCCCN)NC(=O)[C@H](CCCCN)NC(=O)[C@H](Cc1ccccc1)NC(=O)[C@H](CC(C)C)NC(=O)[C@H](CCCCN)NC(=O)[C@H](CCCCN)NC(=O)c1ccccc1)C(=O)N[C@@H](CC(C)C)C(=O)N[C@@H](CCCCN)C(=O)N[C@@H](CCCCN)C(=O)N[C@@H](CC(C)C)C(N)=O [BP126]	%	2
CC[C@H](C)[C@H](NC(=O)[C@H](CCCCN)NC(=O)[C@H](CCCCN)NC(=O)[C@H](Cc1ccccc1)NC(=O)[C@H](CC(C)C)NC(=O)[C@H](CCCCN)NC(=O)[C@H](Cc1c[nH]c2ccccc12)NC(=O)c1ccccc1)C(=O)N[C@@H](CC(C)C)C(=O)N[C@@H](CCCCN)C(=O)N[C@H](C(=O)N[C@@H](CC(C)C)C(N)=O)C(C)C [BP010] (Bz-WKLFKKILKVL-NH2)	%	77
